Target: human DGKzeta (Homo sapiens)
Construct: C-terminally FLAG-tagged, recombinant full-length human DGKζ; made in house; host or cells: baculovirus-infected insect cells
Sequence (Q13574 whole entry): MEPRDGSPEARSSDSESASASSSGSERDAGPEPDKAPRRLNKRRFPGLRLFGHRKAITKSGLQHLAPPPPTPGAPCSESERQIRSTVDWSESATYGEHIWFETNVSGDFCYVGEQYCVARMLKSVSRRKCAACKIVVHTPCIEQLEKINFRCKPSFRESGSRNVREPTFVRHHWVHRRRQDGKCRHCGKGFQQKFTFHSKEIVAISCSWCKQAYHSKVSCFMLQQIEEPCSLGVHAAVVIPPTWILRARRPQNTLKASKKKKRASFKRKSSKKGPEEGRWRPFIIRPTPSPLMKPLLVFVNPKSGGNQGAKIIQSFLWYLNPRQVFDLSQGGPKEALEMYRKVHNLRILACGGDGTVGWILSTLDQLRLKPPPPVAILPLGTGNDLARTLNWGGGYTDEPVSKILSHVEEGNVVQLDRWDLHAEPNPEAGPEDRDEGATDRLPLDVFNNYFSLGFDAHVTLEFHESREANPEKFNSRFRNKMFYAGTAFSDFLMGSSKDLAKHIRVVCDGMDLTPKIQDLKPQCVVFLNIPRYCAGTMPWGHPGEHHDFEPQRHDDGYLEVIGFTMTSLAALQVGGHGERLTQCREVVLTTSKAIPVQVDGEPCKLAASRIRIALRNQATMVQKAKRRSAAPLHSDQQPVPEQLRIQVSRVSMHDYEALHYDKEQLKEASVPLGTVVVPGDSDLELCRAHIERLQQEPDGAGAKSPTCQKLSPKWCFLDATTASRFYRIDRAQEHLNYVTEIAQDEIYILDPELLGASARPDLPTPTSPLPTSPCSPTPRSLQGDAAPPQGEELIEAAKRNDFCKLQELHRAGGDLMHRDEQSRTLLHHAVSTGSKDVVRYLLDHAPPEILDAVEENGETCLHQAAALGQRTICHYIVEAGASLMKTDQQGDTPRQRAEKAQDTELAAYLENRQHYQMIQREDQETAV
Assay: Human DGKzeta kinase activity inhibition assay (ADP-Glo)
Format: biochemical
Conditions: read-out: IC50 hDGKz
Protocol: Human diacylglycerol kinase zeta (DGKζ) inhibitory activity of compounds of the present invention was quantified employing the human DGKζ kinase activity assay as described in the following paragraphs. In essence, the enzyme activity was measured by quantification of the adenosine-di-phosphate (ADP) generated as a co-product of the enzyme reaction via the “ADP-Glo™ Kinase Assay” kit from the company Promega. […]
value.kind: IC50 (µM)
Answers are plain numbers, in µM.

Below are worked cases with known answers.
# compound, study.target, unit.string, value.measured
records = [
    ("CC(C(N)=O)N(c1ccc(F)cc1)c1nc(N)c(C(=O)c2ccc(C(F)(F)F)nc2)s1 (single isomer, unassigned)", "human DGKzeta (Homo sapiens)", "µM", 0.046),
    ("CC(C(N)=O)N(c1ccc(F)cc1)c1nc(N)c(C(=O)c2ccc(OC(F)(F)F)cc2)s1 (single isomer, unassigned)", "human DGKzeta (Homo sapiens)", "µM", 0.0071),
]

Turning to the following compound.
Fill in: IC50 of "Cc1ccc2oc(C3CCN(c4c(C(N)=O)c(=O)n(C)c5ccc(F)cc45)CC3)nc2c1" is ___
17.2

---

Molecular target: human DGKalpha (Homo sapiens)
Sequence (P23743 whole entry): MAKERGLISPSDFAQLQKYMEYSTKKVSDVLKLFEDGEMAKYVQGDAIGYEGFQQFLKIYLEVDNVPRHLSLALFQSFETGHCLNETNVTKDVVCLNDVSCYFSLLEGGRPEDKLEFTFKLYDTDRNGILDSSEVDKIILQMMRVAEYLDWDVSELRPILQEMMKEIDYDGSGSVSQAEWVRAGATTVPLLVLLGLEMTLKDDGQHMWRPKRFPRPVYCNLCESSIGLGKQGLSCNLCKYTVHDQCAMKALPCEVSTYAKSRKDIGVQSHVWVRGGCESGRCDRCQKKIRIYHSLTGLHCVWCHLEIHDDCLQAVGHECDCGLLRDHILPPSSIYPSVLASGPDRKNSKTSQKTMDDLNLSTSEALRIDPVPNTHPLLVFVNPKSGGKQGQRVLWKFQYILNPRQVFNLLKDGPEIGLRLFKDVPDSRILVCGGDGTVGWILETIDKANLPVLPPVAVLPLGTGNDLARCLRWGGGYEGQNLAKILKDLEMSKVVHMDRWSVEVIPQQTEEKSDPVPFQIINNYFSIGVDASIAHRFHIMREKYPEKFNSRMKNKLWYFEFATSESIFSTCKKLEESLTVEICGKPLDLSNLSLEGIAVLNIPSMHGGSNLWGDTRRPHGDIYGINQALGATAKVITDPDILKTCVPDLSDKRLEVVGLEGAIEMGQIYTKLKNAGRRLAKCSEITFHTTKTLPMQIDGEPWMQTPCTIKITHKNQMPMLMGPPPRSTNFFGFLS
So I've got a bunch of molecules here, and I need their IC50 values.

# molecule, study.target, value.kind, value.measured
data = [
    ("CC(C(N)=O)N(c1ccc(F)cc1)c1nc(N)c(C(=O)c2ccc(OC(F)F)cc2)s1 (single isomer, unassigned)", "human DGKalpha (Homo sapiens)", "IC50", "> 20 µM"),
    ("COc1ccc(C(=O)c2sc(N(c3ccc(F)cc3)[C@H](C)C(N)=O)nc2N)cc1", "human DGKalpha (Homo sapiens)", "IC50", "> 3.63 µM"),
    ("CC(C(N)=O)N(c1ccc(F)cc1)c1nc(N)c(C(=O)c2ccc(C(F)(F)F)nc2)s1 (single isomer, unassigned)", "human DGKalpha (Homo sapiens)", "IC50", "> 15 µM"),
]

Turning to the following molecule.
Notebook entry, human DGKalpha (Homo sapiens) assay: IC50 of CC(C(N)=O)N(c1ccc(F)cc1)c1nc(N)c(C(=O)c2ccc(OC(F)(F)F)cc2)s1 (single isomer, unassigned) = ?
> 12.2 µM
